# Tested on: MDA-MB-468 cells
# assayProcedure: Anti-mitotic assay (Tg-3 microtiter immunoassay)
# Assay type: cell-based, human
# experimentalParameters: MDA-MB-468 (Rb-defective) cells, 24 h
# Description: Anti-Mitotic Assay. Black, clear-bottom microtiter 96-well plates (Corning Costar#3603) were used to accommodate experimental cultures. […] The ECL™ Western Blotting Detection Reagents 1 and 2 in 1:1 mix (100 μL) was placed in each well and the plates were read immediately in an Analyst AD plate reader (Molecular Devices). Luminescence readings were imported into SOFTmax PROR 4.3.1. […]
measureName: Anti-mitotic

* C#CCCCn1c(Cc2cc(OC)c(OC)cc2I)nc2c(N)nc(F)nc21 | No
* C#CCCCn1c(Cc2cc(OC)c(OC)cc2Cl)nc2c(N)nc(F)nc21 | No
* CC(C)NCCCn1c(Cc2cc3c(cc2I)OCO3)nc2c(N)nc(F)nc21 | Yes
* C#CCCCn1c(Cc2cc3c(cc2I)OCO3)nc2c(N)nc(F)nc21 | Yes
* CC(C)NCCCn1c(Sc2cc3c(cc2I)OCO3)nc2c(N)ncnc21 | Yes
* C#CCCCn1c(Cc2cc3c(cc2Cl)OCO3)nc2c(N)nc(F)nc21 | Yes
* C#CCCCn1c(Cc2cc3c(cc2Br)OCO3)nc2c(N)nc(F)nc21 | Yes
* C#CCCCn1c(Cc2cc(OC)c(OC)cc2Br)nc2c(N)nc(F)nc21 | No
* COc1cc(Sc2nc3c(N)ncnc3n2CCOC(C)C)c(Cl)cc1Cl | No
* CC(C)NCCCn1c(Sc2cc3c(cc2Br)OCO3)nc2c(N)ncnc21 | Yes
* Nc1ncnc2nc(Sc3cc(Cl)c(Cl)cc3Cl)[nH]c12 | Yes
